# Read-out: Interferon-gamma inducible Protein 10 (IP10), CXCL10 (gene 3627)
# Test: BSK_BE3C_IP10: BioMAP Diversity Plus: BE3C Assay for Interferon-gamma inducible Protein 10 (IP10) Biomarker Activity (AID 2283034)
# Measurement context: primary human bronchial epithelial cells; actives raise or lower the signal
Calls of active or inactive are those of the source. Rule for the calls: active = hit-call score of the fitted dose curve at least 0.9, where 1 is the maximum; inactive = score below 0.9.
Measurement kind: AC50

Recorded results for 6 molecules are shown here.
{"columns": ["Molecule", "AC50"],
 "data": [
  ["CCOc1nc(NC)nc(NC(=O)NS(=O)(=O)c2ccccc2C(=O)OC)n1", "inactive"],
  ["[2H]C1([2H])[n+]2ccccc2-c2cccc[n+]2C1([2H])[2H]", "inactive"],
  ["O=[N+]([O-])/N=C1\\NCCN1Cc1ccc(Cl)nc1", "inactive"],
  ["C#CCN1C(=O)COc2cc(F)c(N3C(=O)C4=C(CCCC4)C3=O)cc21", "inactive"],
  ["CC1(c2ccc(Oc3ccccc3)cc2)OC(=O)N(Nc2ccccc2)C1=O (stereo unspecified)", "15 µM (active)"],
  ["CCc1ccc(C(=O)NN(C(=O)c2cc(C)cc(C)c2)C(C)(C)C)cc1", "inactive"]
]}

Please look up its AC50: COP(=O)(OC)OC=C(Cl)Cl
inactive

Request: O=C(O)CCCOc1ccc(Cl)cc1Cl
inactive

Please do the same for Cc1cc(C)nc(NC(=O)NS(=O)(=O)c2ccccc2C(=O)OC2COC2)n1 as well.
inactive

Can you handle COC(=O)c1ccccc1S(=O)(=O)NC(=O)N(C)c1nc(C)nc(OC)n1 next?
inactive

Then this molecule: COc1nn(CSP(=S)(OC)OC)c(=O)s1
inactive

###

# Read-out: Tissue plasminogen activator (tPA), PLAT (gene 5327)
# Test: BSK_BE3C_tPA: BioMAP Diversity Plus: BE3C Assay for Tissue plasminogen activator (tPA) Biomarker Activity (AID 2283041);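 for outcome: tPA level quantified by ELISA one day after compound addition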
# Measurement context: primary human bronchial epithelial cells; actives raise or lower the signal
Active and inactive are the calls of the source. The calls were made as follows: active = hit-call score of the fitted dose curve at least 0.9, where 1 is the maximum; inactive = score below 0.9.
Write down one outcome, taken from active, inactive

Example results:
{"columns": ["Compound", "Class label"],
 "data": [
  ["CNC(=O)CSP(=S)(OC)OC", "inactive"],
  ["CCOC1Oc2ccc(OS(C)(=O)=O)cc2C1(C)C (stereo not drawn)", "inactive"],
  ["CNC(=O)Oc1ccccc1OC(C)C", "inactive"],
  ["Oc1cc(Cl)ccc1Oc1ccc(Cl)cc1Cl", "active"],
  ["CCOc1nc(NC)nc(NC(=O)NS(=O)(=O)c2ccccc2C(=O)OC)n1", "inactive"],
  ["COc1cc(OC)nc(NC(=O)NS(=O)(=O)c2cc(NC=O)ccc2C(=O)N(C)C)n1", "inactive"],
  ["O=S1OCC2C(CO1)C1(Cl)C(Cl)=C(Cl)C2(Cl)C1(Cl)Cl (stereo not drawn)", "active"]
]}

Now look at this one.
Assay result, entry CN1CSC(=S)N(C)C1 — outcome?
inactive

###

# Read-out: Urokinase-type plasminogen activator receptor (uPAR), PLAUR (gene 5329)
# Test: BSK_4H_uPAR: BioMAP Diversity Plus: 4H Assay for Urokinase-type plasminogen activator receptor (uPAR) Biomarker Activity (AID 2283030)
# Measurement context: primary human endothelial cells (HUVEC); actives raise or lower the signal
Activity calls are given as the source filed them. How the source made its calls: active means hit-call score of the fitted dose curve at least 0.9, where 1 is the maximum; inactive means score below 0.9.

{"columns": ["Molecule", "outcome"],
 "data": [
  ["CCOC1Oc2ccc(OS(C)(=O)=O)cc2C1(C)C (stereo not drawn)", "inactive"],
  ["ClC1C(Cl)C(Cl)C(Cl)C(Cl)C1Cl (stereo not drawn)", "inactive"],
  ["CNC(=O)Oc1ccccc1OC(C)C", "inactive"]
]}

###

# Test: CCTE_Mundy_HCI_Cortical_Synap_Neur_Matur_BPCount: CCTE's Synaptogenesis and Neurite Maturation Assay in rat cortical cells for Branch Point Count, Mundy Lab (AID 2284211)
Activity calls are given as the source filed them. How the source made its calls: active means hit-call score of the fitted dose curve at least 0.9, where 1 is the maximum; inactive means score below 0.9.
Hi there, use one of these labels in your reply, thanks! TRUE = active, FALSE = inactive

{"columns": ["Compound", "Class label"],
 "data": [
  ["CC[C@H](C)[C@H]1O[C@]2(C=C[C@@H]1C)C[C@@H]1C[C@@H](C/C=C(\\C)[C@@H](O[C@H]3C[C@H](OC)[C@@H](O[C@H]4C[C@H](OC)[C@@H](O)[C@H](C)O4)[C@H](C)O3)[C@@H](C)/C=C/C=C3\\CO[C@@H]4[C@H](O)C(C)=C[C@@H](C(=O)O1)[C@]34O)O2 (tested in a mixture with another compound)", "TRUE"],
  ["O=[N+]([O-])/N=C1\\NCCN1Cc1ccc(Cl)nc1", "FALSE"],
  ["O=C(O)C(F)(F)C(F)(F)C(F)(F)C(F)(F)C(F)(F)C(F)(F)C(F)(F)F", "FALSE"],
  ["O=S(=O)(O)C(F)(F)C(F)(F)C(F)(F)C(F)(F)C(F)(F)C(F)(F)C(F)(F)C(F)(F)F", "FALSE"],
  ["CC(C)N(C(=O)COc1nnc(C(F)(F)F)s1)c1ccc(F)cc1", "FALSE"]
]}

Hi, do you know how CCC(C)(C)C(=O)OC1=C(c2ccc(Cl)cc2Cl)C(=O)OC12CCCCC2 came out in this test?
FALSE

Try this compound too: CC1(c2ccc(Oc3ccccc3)cc2)OC(=O)N(Nc2ccccc2)C1=O (configuration not stated)
TRUE

###

# Read-out: Tissue Factor, F3 (gene 2152)
# Test: BSK_LPS_TissueFactor: BioMAP Diversity Plus: LPS Assay for Tissue Factor Biomarker Activity (AID 2283084)
# Measurement context: primary human HUVEC with PBMC; actives raise or lower the signal
Active and inactive are the calls of the source. The calls were made as follows: active = hit-call score of the fitted dose curve at least 0.9, where 1 is the maximum; inactive = score below 0.9.
Give your call using only these classes: True for active, False for inactive

Example entries and their recorded answers appear below.
{"columns": ["Molecule", "Class label"],
 "data": [
  ["O=[N+]([O-])c1c(Cl)c(Cl)c(Cl)c(Cl)c1Cl", "False"],
  ["CC(C)N(C(=O)COc1nnc(C(F)(F)F)s1)c1ccc(F)cc1", "False"],
  ["COC(=O)c1ccccc1S(=O)(=O)NC(=O)Nc1nc(C)nc(OC)n1", "False"],
  ["CCOCN(C(=O)CCl)c1c(C)cccc1CC", "False"],
  ["Oc1ccc(Cl)cc1Cc1ccccc1", "True"]
]}

Next up:
Which outcome was entered for the compound COc1cc(OC)nc(NC(=O)NS(=O)(=O)c2cc(NC=O)ccc2C(=O)N(C)C)n1 in this test?
False

###

# Test: ATG_VDRE_CIS: Attagene CIS-FACTORIAL HepG2 Assay for human Vitamin D Receptor Element (VDRE) (AID 2282968)
# Measurement context: HepG2 VDRE cis-reporter transcription, actives raise or lower the signal
Active and inactive are the calls of the source. The calls were made as follows: active = hit-call score of the fitted dose curve at least 0.9, where 1 is the maximum; inactive = score below 0.9.
# valid calls are true for active, false for inactive; nothing else

Please review the following examples before continuing.
{"columns": ["Molecule", "Class label"],
 "data": [
  ["CCOc1nc(NC)nc(NC(=O)NS(=O)(=O)c2ccccc2C(=O)OC)n1", "false"],
  ["CC(C)OC(=O)Nc1cccc(Cl)c1", "true"],
  ["COC(=O)c1ccccc1CS(=O)(=O)NC(=O)Nc1nc(OC)cc(OC)n1", "false"],
  ["O=C1c2ccccc2C(=O)N1SC(Cl)(Cl)Cl", "false"],
  ["C[C@H]1[C@H](c2ccc(Cl)cc2)SC(=O)N1C(=O)NC1CCCCC1", "true"]
]}

Returns: the outcome recorded for CNC(=O)CSP(=S)(OC)OC in this assay.
false

###

# Read-out: Cytochrome P450 7A1 (Homo sapiens)
# Test: LTEA_HepaRG_CYP7A1: Life Technologies and Expression Analysis (LTEA) Assay for Cytochrome P450 7A1 (CYP7A1) using HepaRG (AID 2283496)
# Measurement context: mRNA level, 48 h; actives raise or lower the signal
Calls of active or inactive are those of the source. The calls were made as follows: active = hit-call score of the fitted dose curve at least 0.9, where 1 is the maximum; inactive = score below 0.9.
Valid outcomes are listed here; reply with one: class 1 (active), class 0 (inactive)

Example results:
{"columns": ["Molecule", "Class label"],
 "data": [
  ["CCc1ccc(C(=O)NN(C(=O)c2cc(C)cc(C)c2)C(C)(C)C)cc1", "class 1"],
  ["O=C(O)C(F)(F)C(F)(F)C(F)(F)C(F)(F)C(F)(F)C(F)(F)C(F)(F)F", "class 0"],
  ["CC(C)(C)C(O)/C(=C\\c1ccc(Cl)cc1Cl)n1cncn1 (stereo not drawn)", "class 1"]
]}

Then this molecule:
Dear colleague, could you share the recorded outcome for CCCN(CCOc1c(Cl)cc(Cl)cc1Cl)C(=O)n1ccnc1 when you have a moment?
class 1

###

# Target under test: human CYP2B6, CYP2B6 (gene 1555) (UniProt P20813)
# Sequence (P20813 whole entry, looked up): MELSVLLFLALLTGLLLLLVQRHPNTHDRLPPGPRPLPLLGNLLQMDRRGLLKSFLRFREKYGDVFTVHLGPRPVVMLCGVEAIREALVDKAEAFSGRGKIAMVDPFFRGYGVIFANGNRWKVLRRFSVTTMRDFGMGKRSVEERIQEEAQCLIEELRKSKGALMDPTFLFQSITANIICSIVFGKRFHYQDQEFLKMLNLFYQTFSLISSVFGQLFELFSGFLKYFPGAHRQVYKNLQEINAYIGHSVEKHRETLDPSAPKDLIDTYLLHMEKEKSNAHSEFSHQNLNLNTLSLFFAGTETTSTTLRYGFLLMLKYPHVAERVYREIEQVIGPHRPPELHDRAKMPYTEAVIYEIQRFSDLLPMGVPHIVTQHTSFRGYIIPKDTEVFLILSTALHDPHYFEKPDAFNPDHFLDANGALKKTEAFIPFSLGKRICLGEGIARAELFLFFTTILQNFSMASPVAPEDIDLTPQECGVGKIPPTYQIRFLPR
# Test: NVS_ADME_hCYP2B6: NovaScreen (NVS) CYP450-related Enzyme Activity (ADME) Assay for human CYP2B6 (AID 2283101)
Results filed as inconclusive are left out. Activity calls are given as the source filed them. Rule for the calls: active = hit-call score of the fitted dose curve at least 0.9, where 1 is the maximum; inconclusive = response in the unintended direction; inactive = score below 0.9.
Listing of recorded AC50 by entry.

Data request, read-out AC50, for Oc1ccc(Cl)cc1Cc1ccccc1
7.66 µM (active) [middle of 6 runs]

Now consider COP(=S)(OC)Oc1ccc(SC)c(C)c1 .
8.76 µM (active)

Then what about the compound COP(=S)(OC)Oc1ccc([N+](=O)[O-])cc1 ?
0.547 µM (active)

Can you check O=S1OCC2C(CO1)C1(Cl)C(Cl)=C(Cl)C2(Cl)C1(Cl)Cl (stereo not given) next?
4.85 µM (active)

Similarly, CN1CSC(=S)N(C)C1 ?
10 µM (active)
